Every entry's value here was drawn from patent EP4227307A1.

Biological target: human recombinant 6His-Nterm SHP2 full-length (Thr2-Arg593) (Homo sapiens)
Construct: 6His-Nterm SHP2 full-length (Thr2-Arg593, R&D system); 6His (N)
Test: SHP2 Phosphatase Assay (DiFMUP fluorescence)
Conditions: SHP2 0.2 nM pre-incubated with 100 nM bi-phosphorylated activating peptide; compound 1000-0.05 nM, 30 min pre-incubation; DiFMUP 20 µM, 45 min, room temperature; 10-concentration dose-response
Where a name gives a salt, the structure may show the parent alone.
Measured IC50 accompanies every entry in the list below.
Reply with just the number (in nM).

Some compounds with recorded IC50:
> print(dat)
                                   compound  endpoint.value
1  Cc1nc(N2CCC3(CC2)Cc2ncccc2[C@H]3N)c2ccnn2c1-c1ccnnc1 [Compound 159, hydrochloride]             649
2  COc1ccc2c(c1)CC1(CCN(c3nc(C)c(-c4cnn(C)c4C)n4nccc34)CC1)[C@@H]2N              17
3  COc1nc2c(s1)[C@@H](N)C1(CCN(c3nc(C)c(-c4cnn(C)c4C)n4nccc34)CC1)C2              26
4  Cc1ccccc1-c1c(C)nc(N2CCC3(CC2)Cc2ncccc2[C@H]3N)c2ccnn12              24
5  Cc1nc(N2CCC3(CC2)Cc2cc(CO)ncc2[C@H]3N)c2ccnn2c1-c1ccccc1F              11

Incoming: Let me know recorded IC50 for Cc1cc2c(cn1)CC1(CCN(c3nc(C)c(-c4ccccc4)n4nccc34)CC1)[C@@H]2N [Compound 114, hydrochloride] , thanks.
Outgoing: 10

Incoming: Let me know recorded IC50 for COc1c(F)ccc(-c2c(C)nc(N3CCC4(CC3)Cc3ncccc3[C@H]4N)c3ccnn23)c1F , thanks.
Outgoing: 3

Incoming: Let me know recorded IC50 for COc1cc(-c2c(C)nc(N3CCC4(CC3)Cc3ncccc3[C@H]4N)c3ccnn23)c(F)cn1 [Compound 76, hydrochloride] , thanks.
Outgoing: 72

Incoming: Let me know recorded IC50 for Cc1nc2c(s1)CC1(CCN(c3nc(C)c(-c4ccccc4F)n4nccc34)CC1)[C@@H]2N [Compound 104, hydrochloride] , thanks.
Outgoing: 9

Incoming: Let me know recorded IC50 for Cc1nc(N2CCC3(CC2)Cc2cccnc2[C@H]3N)c2ccnn2c1-c1cnn(C)c1C , thanks.
Outgoing: 60

----------
Measured pIC50 accompanies every entry in the list below.
Molecular target: human recombinant 6His-Nterm SHP2 full-length (Thr2-Arg593) (Homo sapiens, UniProt Q06124)
Construct: 6His-Nterm SHP2 full-length (Thr2-Arg593, R&D system); 6His (N)
Sequence (Q06124 2-593): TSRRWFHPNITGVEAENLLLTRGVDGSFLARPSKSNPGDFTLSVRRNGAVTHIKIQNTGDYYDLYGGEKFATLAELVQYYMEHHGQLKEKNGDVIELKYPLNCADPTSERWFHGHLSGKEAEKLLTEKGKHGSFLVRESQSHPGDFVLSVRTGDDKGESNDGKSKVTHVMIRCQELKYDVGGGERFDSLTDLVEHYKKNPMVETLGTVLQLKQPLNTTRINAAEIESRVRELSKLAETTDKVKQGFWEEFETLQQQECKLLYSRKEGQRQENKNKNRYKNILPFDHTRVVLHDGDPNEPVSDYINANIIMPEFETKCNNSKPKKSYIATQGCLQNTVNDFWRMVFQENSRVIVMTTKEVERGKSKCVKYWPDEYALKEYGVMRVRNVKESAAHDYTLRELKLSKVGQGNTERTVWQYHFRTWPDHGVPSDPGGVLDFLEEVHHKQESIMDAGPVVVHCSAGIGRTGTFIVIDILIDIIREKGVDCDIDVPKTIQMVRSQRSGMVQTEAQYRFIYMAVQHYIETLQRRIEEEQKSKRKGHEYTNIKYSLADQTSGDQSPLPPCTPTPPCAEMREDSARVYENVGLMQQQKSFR
Test: SHP2 Phosphatase Assay (DiFMUP fluorescence)
Conditions: SHP2 0.2 nM pre-incubated with 100 nM bi-phosphorylated activating peptide; compound 1000-0.05 nM, 30 min pre-incubation; DiFMUP 20 µM, 45 min, room temperature; 10-concentration dose-response
Description: Inhibition of SHP2 phosphatase activity was evaluated using human recombinant 6His-Nterm SHP2 full-length (Thr2-Arg593, R&D system), NsCs bi-phosphorylated activating peptide (NH2-LN(pY)AQLWHA(PEG8)LTI(pY)ATIRRF-Amide.acetate, Thermofischer Scientific) and DiFMUP as surrogate phosphatase substrate (Molecular Probes). […] The fluorescence signal was measured at excitation and emission wavelengths of 350 nm and 450 nm, respectively, using a Pherastar instrument (BMG-LabTech). […]
Structures can show the parent of a compound that is named as a salt.
Reminder that pIC50 means the negative base-10 logarithm of the concentration expressed in mol/L.

> print(dat)
                                   compound                              study.system  measure.name  endpoint.value
1  Cc1nc(N2CCC3(CC2)Cc2ncccc2[C@H]3N)c2ccnn2c1-c1ccc2cnccc2c1  human recombinant 6His-Nterm SHP2 full-length (Thr2-Arg593) (Homo sapiens, UniProt Q06124)         pIC50            7.80

Incoming: Let me know recorded pIC50 for COc1cccc(-c2c(C)nc(N3CCC4(CC3)Cc3ncccc3[C@H]4N)c3ccnn23)c1F , thanks.
Outgoing: 8.15

Incoming: Let me know recorded pIC50 for Cc1nc(N2CCC3(CC2)Cc2c(ccnc2CO)[C@H]3N)c2ccnn2c1-c1ccccc1F , thanks.
Outgoing: 8.10

Incoming: Let me know recorded pIC50 for Cc1nccc(-c2c(C)nc(N3CCC4(CC3)Cc3ccncc3[C@H]4N)c3ccnn23)c1F , thanks.
Outgoing: 8.15

Incoming: Let me know recorded pIC50 for Cc1nc(N2CCC3(CC2)Cc2ncccc2[C@H]3N)c2ccnn2c1-c1cncs1 [Compound 157, hydrochloride] , thanks.
Outgoing: 7.14

Incoming: Let me know recorded pIC50 for Cc1ccc2c(n1)CC1(CCN(c3nc(C)c(-c4ccccc4F)n4nccc34)CC1)[C@@H]2N [Compound 106, hydrochloride] , thanks.
Outgoing: 7.85

Incoming: Let me know recorded pIC50 for Cc1nc(N2CCC3(CC2)Cc2ncccc2[C@H]3N)c2ccnn2c1-c1ccncc1F [Compound 71, hydrochloride] , thanks.
Outgoing: 7.52

Incoming: Let me know recorded pIC50 for Cc1nc(N2CCC3(CC2)Oc2ccccc2[C@H]3N)c2ccnn2c1-c1ccc(F)c2cc[nH]c12 , thanks.
Outgoing: 6.88

Incoming: Let me know recorded pIC50 for COc1cc2c(cn1)[C@@H](N)C1(CCN(c3nc(C)c(-c4ccnc(C)c4Cl)n4nccc34)CC1)C2 , thanks.
Outgoing: 8.10

Incoming: Let me know recorded pIC50 for Cc1cnc2c(c1)[C@@H](N)C1(CCN(c3nc(C)c(-c4ccnc(C)c4Cl)n4nccc34)CC1)C2 , thanks.
Outgoing: 8.40

Incoming: Let me know recorded pIC50 for CCn1cc(-c2c(C)nc(N3CCC4(CC3)Cc3ncccc3[C@H]4N)c3ccnn23)cn1 , thanks.
Outgoing: 7.77
